experiment: A CellTox Green Cytotoxicity Assay to monitor cytotoxicity in HepG2 cells - 32 hour (AID 1224883); conditions: CellTox Green fluorescence; series mostly up to 76.8 µM; further: nearly all actives have a fitted effect of over 50% in size
Records with an inconclusive call do not appear. The source made the active and inactive calls. The call rests on the fitted dose curve; in most records, active means well fitted activation curve with a large enough effect in the repeat runs; inconclusive means weak or mixed curves; inactive means flat fitted curve, though single readings scatter.
Log the outcome using a class from active, inactive

INSERT INTO results (compound, answer_label) VALUES
  ('C[C@]12CCC(=O)C(O)=C1CC[C@@H]1[C@@H]2CC[C@]2(C)C(=O)CC[C@@H]12', 'inactive');

Ask: Record lookup: outcome of this test for `CCN(CC)C(=O)/C(Cl)=C(\C)OP(=O)(OC)OC` ?
Result: inactive

Ask: Try `Nc1ccc(Cl)c(Cl)c1` next.
Result: inactive

Ask: Try `Cc1ccc2c(c1N)C(=O)c1ccccc1C2=O` next.
Result: inactive

----------
target: Progesterone receptor (Homo sapiens) (UniProt P06401); test: qHTS assay to identify small molecule antagonists of the progesterone receptor (PR) signaling pathway (AID 1346795); conditions: PR-UAS-bla HEK293T, beta-lactamase FRET ratio, 16 h; series mostly up to 92.4 µM
Sequence (P06401 whole entry, looked up): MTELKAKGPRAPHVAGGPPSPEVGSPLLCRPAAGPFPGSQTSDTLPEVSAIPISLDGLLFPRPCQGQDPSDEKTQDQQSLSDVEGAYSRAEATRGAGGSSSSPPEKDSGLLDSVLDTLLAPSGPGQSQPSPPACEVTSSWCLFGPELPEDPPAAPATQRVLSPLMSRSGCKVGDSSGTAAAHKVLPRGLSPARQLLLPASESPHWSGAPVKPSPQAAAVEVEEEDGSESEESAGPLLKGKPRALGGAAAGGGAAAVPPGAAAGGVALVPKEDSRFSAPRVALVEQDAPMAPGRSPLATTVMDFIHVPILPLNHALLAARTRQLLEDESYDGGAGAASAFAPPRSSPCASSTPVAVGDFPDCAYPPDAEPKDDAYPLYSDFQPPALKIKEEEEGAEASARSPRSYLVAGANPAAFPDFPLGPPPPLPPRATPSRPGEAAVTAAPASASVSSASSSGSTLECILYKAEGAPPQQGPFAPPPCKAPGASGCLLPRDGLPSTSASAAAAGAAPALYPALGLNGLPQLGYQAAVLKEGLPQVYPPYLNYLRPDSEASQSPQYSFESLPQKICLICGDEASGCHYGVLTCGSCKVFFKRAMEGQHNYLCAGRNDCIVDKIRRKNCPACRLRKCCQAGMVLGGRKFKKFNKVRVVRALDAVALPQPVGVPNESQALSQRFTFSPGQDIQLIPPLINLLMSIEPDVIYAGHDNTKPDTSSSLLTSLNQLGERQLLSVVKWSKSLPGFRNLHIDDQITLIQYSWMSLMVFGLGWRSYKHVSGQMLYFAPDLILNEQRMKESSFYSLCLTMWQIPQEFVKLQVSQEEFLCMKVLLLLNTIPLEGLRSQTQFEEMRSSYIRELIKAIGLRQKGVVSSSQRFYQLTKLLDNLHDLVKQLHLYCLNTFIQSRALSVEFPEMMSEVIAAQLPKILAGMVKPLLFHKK
Records with an inconclusive call do not appear. Calls of active or inactive are those of the source. Calls follow the shape of the dose curve; as a rule, active = well fitted inhibition curve with a large enough effect in the signal ratio in the repeat runs (not every such curve was filed as active); inconclusive = weak or mixed curves; inactive = flat fitted curve, though single readings scatter; the % refers to the signal ratio.
Log the outcome using a class from active, inactive

INSERT INTO results (compound, answer_label) VALUES
  ('CC(C)=CC1C(C(=O)OCc2coc(Cc3ccccc3)c2)C1(C)C (stereo unspecified)', 'active'),
  ('O=[N+]([O-])c1c(Cl)c(Cl)c(Cl)c(Cl)c1Cl', 'inactive'),
  ('COc1ccc(C(CN(C)C)C2(O)CCCCC2)cc1 (stereo unspecified)', 'inactive'),
  ('C=CCc1ccc(OC)cc1', 'inactive'),
  ('O=C(NC(=O)c1c(F)cccc1F)Nc1ccc(Cl)cc1', 'inactive');

Now for a further compound.
Ask: Record lookup: outcome of this test for `C#C[C@]1(O)CC[C@H]2[C@@H]3CCC4=CC(=O)CC[C@]4(C)[C@H]3CC[C@@]21C` ?
Result: inactive

----------
assay: qHTS assay to identify small molecule HDAC inhibitors (AID 1259364); details: HCT-116 HDAC-Glo I/II luminescence, 2 h; series mostly up to 92.4 µM;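 further: wild-type HCT-116 cells with endogenous class I/II HDAC activity; nearly all actives have a fitted effect of over 45% in size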
Inconclusive results are not listed. Activity calls are given as the source filed them. Calls follow the shape of the dose curve; as a rule, active = well fitted inhibition curve with a large enough effect in the repeat runs; inconclusive = weak or mixed curves; inactive = flat fitted curve, though single readings scatter.
Log the outcome using a class from active, inactive

Past entries and their recorded results:
INSERT INTO results (compound, answer_label) VALUES
  ('CCC(C)c1ccc(O)cc1 (stereo not given)', 'inactive'),
  ('CC(C)N(C(=O)SCC(Cl)=C(Cl)Cl)C(C)C', 'inactive'),
  ('OCC(O)CO', 'inactive'),
  ('CC(C)NC(C)C', 'inactive'),
  ('COc1ccc(C=O)cc1', 'inactive'),
  ('CCCCC(CC)COC(=O)Cl (stereo not given)', 'inactive'),
  ('c1cc(OCC2CO2)ccc1Cc1ccc(OCC2CO2)cc1 (stereo not given)', 'inactive'),
  ('O=C(CCl)c1ccccc1', 'inactive'),
  ('Oc1cc(Cl)ccc1Cl', 'inactive'),
  ('COP(=S)(OC)Oc1ccc([N+](=O)[O-])cc1', 'inactive');

Ask: Record lookup: outcome of this test for C=C(C)C(=O)OCC1CO1 (stereo not given) ?
Result: inactive

Ask: Try `CCOCN(C(=O)CCl)c1c(C)cccc1CC` next.
Result: inactive

Ask: Try `C1=Cc2cccc3cccc1c23` next.
Result: inactive

Ask: Try O=c1oc2ccccc2c(O)c1C(CC(O)c1ccc(-c2ccc(Br)cc2)cc1)c1ccccc1 (stereo not given) next.
Result: inactive

Ask: Try `Nc1ccc(-c2ccc(N)c(N)c2)cc1N` next.
Result: active
